- experiment: osmotic lysis modulators in infected erythrocytes, primary screen, PSAC antagonist project, cell-based, P. falciparum Indochina, OD700, 3 h (AID 1156)
- study_conditions: higher = more signal, called active from +8 up or from −8 down
Kind request: treat 0.5 as inclusive, so z-score at 0.5 or higher is YES, anything lower is NO.

>  <compound>
CN1C(=O)C2C=CC(C(O)Cc3ccccc3)N(N(c3ccccc3)c3ccccc3)C2C1=O (configuration not stated)

>  <class_assignment>
NO

$$$$
>  <compound>
CC(=O)N1Cc2ccccc2C[C@]2(N=C(c3ccc(OCCCO)cc3)O[C@@H]2c2ccccc2)C1=O

>  <class_assignment>
YES

$$$$
>  <compound>
C=CC[C@H](OC(=O)Nc1ccc(OC)cc1)c1ccc(O)c2ccccc12

>  <class_assignment>
NO

$$$$
>  <compound>
CC(C)C(CO)N1C(=O)[C@]2(C)C3C(=O)OCCC/C=C\[C@H]3OC23C=CCN(c2ccc(Cl)cc2)C(=O)[C@@H]13 (some centres not stated)

>  <class_assignment>
YES

$$$$
>  <compound>
CN1C(=O)C2C=CC(C(O)c3c(F)cccc3Cl)N(Nc3ccccc3)C2C1=O (configuration not stated)

>  <class_assignment>
NO

$$$$
>  <compound>
CC(C)CN1C(=O)[C@@]2(Cc3ccccc31)c1ccccc1C(=O)N(Cc1ccccc1C(F)(F)F)[C@H]2c1ccc(CO)cc1

>  <class_assignment>
NO

$$$$

* * *

- subject_of_test: Alpha-bungarotoxin (Bungarus multicinctus)
- experiment: alpha-bungarotoxin binders on microarray, profiling panel, artefact control for SMM control protein annotation, biochemical, small-molecule microarray, Alexa647 label, 635/667 nm fluorescence (AID 1117)
- study_conditions: alpha-BTX-A647 binding fluorescence, higher = more signal
Each record here notes measured composite z-score.

>  <compound>
CO[C@H]1O[C@H](CO)[C@@H](OC(=O)Nc2ccc(Oc3ccccc3)cc2)[C@H](OC(=O)Nc2ccccc2-c2ccccc2)[C@@H]1OC(=O)Nc1ccccc1-c1ccccc1

>  <composite z-score>
1.52

$$$$
>  <compound>
[N-]=[N+]=NCc1ccccc1C[C@@]1(C(=O)N2CCCCC2)N=C(c2ccc(OCCCO)cc2)O[C@@H]1c1ccccc1N=[N+]=[N-]

>  <composite z-score>
0.809

$$$$
>  <compound>
COC(=O)c1c(CC[C@@H](CO)NC(=O)N[C@H](Cn2cc(-c3ccccc3C)nn2)C(C)C)oc(C(C)=O)c1C(=O)OC

>  <composite z-score>
0.879

$$$$
>  <compound>
C#CCNC(=O)[C@H](Cc1ccccc1)NC(=O)[C@@H](N=[N+]=[N-])C(C)C

>  <composite z-score>
0.96

$$$$
>  <compound>
O=C(NC1CC1)[C@@H]1c2ccccc2C(=O)N(Cc2ccccc2)[C@H]1c1ccc(CO)cc1

>  <composite z-score>
0.406

$$$$
>  <compound>
C=CCNC(=O)[C@@H]1[C@H]2C(=O)O[C@H](c3ccccc3)[C@H](c3ccccc3)N2[C@H](c2ccc(OCCO)cc2)[C@@]12C(=O)N(C(=O)OCCOC)c1ccc(C#CC3=CCCCC3)cc12

>  <composite z-score>
0.84

$$$$
>  <compound>
CC(C)N1CC=CC23O[C@@H]4C=CCOC(=O)[C@@H]4[C@H]2C(=O)N(C(C)CO)[C@@H]3C1=O (some centres not stated)

>  <composite z-score>
-0.127

$$$$
